Target: mouse RORγ (Mus musculus, UniProt P51450)
Construct: mouse, NM_011281.2 and from Ile251 to Lys516; expressed in transfected cells; host or cells: CHO cells (transient co-transfection with pG5-Luc reporter)
Sequence (P51450 251-516): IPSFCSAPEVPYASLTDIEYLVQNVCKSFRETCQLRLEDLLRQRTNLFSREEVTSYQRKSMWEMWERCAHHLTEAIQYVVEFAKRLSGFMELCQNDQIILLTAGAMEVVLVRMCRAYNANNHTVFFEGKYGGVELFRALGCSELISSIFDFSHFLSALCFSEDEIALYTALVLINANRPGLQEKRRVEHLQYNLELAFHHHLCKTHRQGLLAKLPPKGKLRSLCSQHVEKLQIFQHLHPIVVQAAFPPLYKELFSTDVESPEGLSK
Experiment: Luciferase reporter gene assay of inhibitory effect against RORγ transcriptional activity (GAL4-mRORγ plasmid in CHO cells)
Format: cell-based
Settings: read-out: LUC EC50 (μM) mRORg
OBSERVED PROPERTY: EC50

>>> measured("CCCc1ccc(C)c(NC(=O)CCc2nnc(CCC(C)C)n2C2CC2)c1")
"> 3 µM"
>>> measured("CC(C)n1c(CCC(=O)Nc2cccc3ccccc23)nnc1C1Cc2ccccc2C1")
"> 3 µM"
>>> measured("CC(=O)N1C[C@H](C(=O)Nc2ccc(C)cc2C)[C@@H](c2nnc(-c3cc(C(C)C)on3)n2C2CC2)C1 (racemic)")
"< 3 µM"
>>> measured("CC(C)CCc1nnc(CCC(=O)N[C@@H](C)c2ccccc2)n1C1CC1")
"> 3 µM"
>>> measured("Cc1c(Cl)cccc1NC(=O)CCc1nnc([C@H]2CC[C@H](C(C)C)CC2)n1C1CC1")
"< 3 µM"
>>> measured("Cc1ccc(NC(=O)C[C@H](CCC(=O)O)c2noc(-c3ccc(CC(C)C)o3)c2C2CC2)c(Cl)c1")
"< 3 µM"
>>> measured("CCn1c(CCC(=O)NC2CCCCC2)nnc1C1Cc2ccccc2C1")
"> 3 µM"
>>> measured("CCCC(CCC)NC(=O)CCc1nnc(C2Cc3ccccc3C2)n1CC")
"> 3 µM"
